Origin of measurements: the supplement of paper PMC12406974

Measured maximum observed lethal fraction of individual entries
System: U2OS
assayRemarks: maximum observed lethal fraction; higher = more cell death;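 note: FLICK assay: SYTOX Green fluorescence of dead cells tracked over time after drugging in 96-well plates, with total cell counts taken from Triton X-100 lysed wells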
appliedConditions: 0.0316 µM

>  <molecule>
CC(C)C[C@H](NC(=O)[C@H](Cc1ccccc1)NC(=O)c1cnccn1)B(O)O [Bortezomib]

>  <experimentalTarget>
U2OS

>  <maximum observed lethal fraction>
0.865

$$$$
>  <molecule>
Nc1ccc(-c2ccc3ncc4ccc(=O)n(-c5cccc(C(F)(F)F)c5)c4c3c2)cn1 [Torin2]

>  <experimentalTarget>
U2OS

>  <maximum observed lethal fraction>
0.0812

$$$$
>  <molecule>
CN[C@@H]1C[C@H]2O[C@@](C)([C@@H]1OC)n1c3ccccc3c3c4c(c5c6ccccc6n2c5c31)C(=O)NC4 [Staurosporine]

>  <experimentalTarget>
U2OS

>  <maximum observed lethal fraction>
0.709

$$$$
>  <molecule>
CO[C@H]1C[C@@H]2CC[C@@H](C)[C@@](O)(O2)C(=O)C(=O)N2CCCC[C@H]2C(=O)O[C@H]([C@H](C)C[C@@H]2CC[C@@H](O)[C@H](OC)C2)CC(=O)[C@H](C)/C=C(\C)[C@@H](O)[C@@H](OC)C(=O)[C@H](C)C[C@H](C)/C=C/C=C/C=C/1C [Rapamycin]

>  <experimentalTarget>
U2OS

>  <maximum observed lethal fraction>
0.0603

$$$$
>  <molecule>
COc1cc([C@@H]2c3cc4c(cc3[C@@H](O[C@@H]3O[C@@H]5CO[C@@H](C)O[C@H]5[C@H](O)[C@H]3O)[C@H]3COC(=O)[C@H]23)OCO4)cc(OC)c1O [Etoposide]

>  <experimentalTarget>
U2OS

>  <maximum observed lethal fraction>
0.0568

$$$$
>  <molecule>
Cc1c2oc3c(C)ccc(C(=O)N[C@@H]4C(=O)N[C@H](C(C)C)C(=O)N5CCC[C@H]5C(=O)N(C)CC(=O)N(C)[C@@H](C(C)C)C(=O)O[C@@H]4C)c3nc-2c(C(=O)N[C@@H]2C(=O)N[C@H](C(C)C)C(=O)N3CCC[C@H]3C(=O)N(C)CC(=O)N(C)[C@@H](C(C)C)C(=O)O[C@@H]2C)c(N)c1=O [Actinomycin-D]

>  <experimentalTarget>
U2OS

>  <maximum observed lethal fraction>
0.545

$$$$

----------
Test system: U2OS PTBP1-KO
assayRemarks: maximum observed lethal fraction; higher = more cell death
appliedConditions: 0.316 µM
Let's look at some molecules and their measured maximum observed lethal fraction.

>  <molecule>
Cc1[nH]c2ccccc2c1CCNCc1ccc(/C=C/C(=O)NO)cc1

>  <maximum observed lethal fraction>
0.603

$$$$
>  <molecule>
CN[C@@H]1C[C@H]2O[C@@](C)([C@@H]1OC)n1c3ccccc3c3c4c(c5c6ccccc6n2c5c31)C(=O)NC4

>  <maximum observed lethal fraction>
0.878

$$$$
>  <molecule>
CC(C)C[C@@H](C=O)NC(=O)[C@H](CC(C)C)NC(=O)[C@H](CC(C)C)NC(=O)OCc1ccccc1

>  <maximum observed lethal fraction>
0.182

$$$$
>  <molecule>
Nc1ncnc2c1ncn2[C@@H]1O[C@H](CO)C[C@H]1O [Cordycepin]

>  <maximum observed lethal fraction>
0.0684

$$$$
>  <molecule>
CC(C)[C@]12O[C@H]1[C@@H]1O[C@]13[C@]1(O[C@H]1C[C@H]1C4=C(CC[C@@]13C)C(=O)OC4)[C@@H]2O [Triptolide]

>  <maximum observed lethal fraction>
0.223

$$$$

----------
Tested on: U2OS PTBP1-KO
assayRemarks: maximum observed lethal fraction; higher = more cell death
appliedConditions: 0.0316 µM
measuredQuantity: maximum observed lethal fraction

>  <compound>
Nc1ccc(-c2ccc3ncc4ccc(=O)n(-c5cccc(C(F)(F)F)c5)c4c3c2)cn1

>  <experimentalTarget>
U2OS PTBP1-KO

>  <measuredQuantity>
maximum observed lethal fraction

>  <observedMeasurement>
0.0906

$$$$
>  <compound>
CC(=O)c1c(C)c2cnc(Nc3ccc(N4CCNCC4)cn3)nc2n(C2CCCC2)c1=O

>  <experimentalTarget>
U2OS PTBP1-KO

>  <measuredQuantity>
maximum observed lethal fraction

>  <observedMeasurement>
0.0713

$$$$
>  <compound>
CC[C@@]1(O)C(=O)OCc2c1cc1n(c2=O)Cc2cc3c(CN(C)C)c(O)ccc3nc2-1

>  <experimentalTarget>
U2OS PTBP1-KO

>  <measuredQuantity>
maximum observed lethal fraction

>  <observedMeasurement>
0.0741

$$$$
>  <compound>
CC[C@@]1(O)C(=O)OCc2c1cc1n(c2=O)Cc2cc3ccccc3nc2-1

>  <experimentalTarget>
U2OS PTBP1-KO

>  <measuredQuantity>
maximum observed lethal fraction

>  <observedMeasurement>
0.0841

$$$$

----------
Test system: U2OS
assayRemarks: maximum observed lethal fraction; higher = more cell death
appliedConditions: 0.1 µM
measuredQuantity: maximum observed lethal fraction

>  <compound>
C/C=C(/C)C(=O)O[C@H]1C(C)=C2[C@H]([C@@H]1OC(=O)CCCCCCC)[C@@](C)(OC(C)=O)C[C@H](OC(=O)CCC)[C@@]1(O)[C@H]2OC(=O)[C@@]1(C)O

>  <experimentalTarget>
U2OS

>  <measuredQuantity>
maximum observed lethal fraction

>  <observedMeasurement>
0.476

$$$$
>  <compound>
C=CC(=O)Nc1ccc(C(=O)Nc2[nH]nc3c2CN(C(=O)N[C@H](CN(C)C)c2ccccc2)C3(C)C)cc1

>  <experimentalTarget>
U2OS

>  <measuredQuantity>
maximum observed lethal fraction

>  <observedMeasurement>
0.0827

$$$$
>  <compound>
CN[C@@H]1C[C@H]2O[C@@](C)([C@@H]1OC)n1c3ccccc3c3c4c(c5c6ccccc6n2c5c31)C(=O)NC4

>  <experimentalTarget>
U2OS

>  <measuredQuantity>
maximum observed lethal fraction

>  <observedMeasurement>
0.903

$$$$
>  <compound>
COc1cc([C@@H]2c3cc4c(cc3[C@@H](O[C@@H]3O[C@@H]5CO[C@@H](C)O[C@H]5[C@H](O)[C@H]3O)[C@H]3COC(=O)[C@H]23)OCO4)cc(OC)c1O [Etoposide]

>  <experimentalTarget>
U2OS

>  <measuredQuantity>
maximum observed lethal fraction

>  <observedMeasurement>
0.0636

$$$$
>  <compound>
O=C(CCCCCCC(=O)Nc1ccccc1)NO

>  <experimentalTarget>
U2OS

>  <measuredQuantity>
maximum observed lethal fraction

>  <observedMeasurement>
0.0571

$$$$
>  <compound>
NC(=O)c1cccc2cn(-c3ccc([C@@H]4CCCNC4)cc3)nc12

>  <experimentalTarget>
U2OS

>  <measuredQuantity>
maximum observed lethal fraction

>  <observedMeasurement>
0.0543

$$$$

----------
Let's look at some compounds and their measured maximum observed lethal fraction.
Tested on: U2OS PTBP1-KO
assayRemarks: maximum observed lethal fraction; higher = more cell death
appliedConditions: 0.1 µM

>  <compound>
Cc1[nH]c2ccccc2c1CCNCc1ccc(/C=C/C(=O)NO)cc1 [Panobinostat]

>  <experimentalTarget>
U2OS PTBP1-KO

>  <maximum observed lethal fraction>
0.601

$$$$
>  <compound>
Cc1cc(Nc2ccc(NC(=O)c3ccc(Nc4ccnc5ccccc45)cc3)cc2)nc(N)n1 [SGI-1027]

>  <experimentalTarget>
U2OS PTBP1-KO

>  <maximum observed lethal fraction>
0.0687

$$$$
>  <compound>
CCN1CCN(Cc2ccc(Nc3ncc(F)c(-c4cc(F)c5nc(C)n(C(C)C)c5c4)n3)nc2)CC1 [Abemaciclib]

>  <experimentalTarget>
U2OS PTBP1-KO

>  <maximum observed lethal fraction>
0.081

$$$$
>  <compound>
CN(C)C/C=C/C(=O)Nc1ccc(C(=O)N2CCC[C@@H](Nc3ncc(Cl)c(-c4c[nH]c5ccccc45)n3)C2)cc1 [THZ531]

>  <experimentalTarget>
U2OS PTBP1-KO

>  <maximum observed lethal fraction>
0.0684

$$$$
